Data origin: the supplement of paper PMC11908140

B1: library; numbered along this chain (parent)
chain: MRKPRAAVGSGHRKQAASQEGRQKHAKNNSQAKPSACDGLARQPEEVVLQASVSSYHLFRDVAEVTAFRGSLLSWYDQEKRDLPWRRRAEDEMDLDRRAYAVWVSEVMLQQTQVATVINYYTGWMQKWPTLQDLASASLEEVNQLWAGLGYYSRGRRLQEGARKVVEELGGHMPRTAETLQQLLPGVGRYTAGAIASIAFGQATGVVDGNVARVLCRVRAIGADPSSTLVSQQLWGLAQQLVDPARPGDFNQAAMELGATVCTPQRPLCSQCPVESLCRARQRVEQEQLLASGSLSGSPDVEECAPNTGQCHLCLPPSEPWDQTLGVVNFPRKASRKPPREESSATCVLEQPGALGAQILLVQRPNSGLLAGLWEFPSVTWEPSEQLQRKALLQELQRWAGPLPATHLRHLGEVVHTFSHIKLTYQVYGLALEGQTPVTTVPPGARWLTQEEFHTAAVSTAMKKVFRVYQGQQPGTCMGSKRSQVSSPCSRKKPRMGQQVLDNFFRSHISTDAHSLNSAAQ

variants of: B1; experiment: 8OG:A repair function score (normalized; synonymous = 0, nonsense = -1) (normalized log-likelihood score); higher = more repair activity (WT-like); conditions: with 8OG:A DNA repair reporter (GFP) in HEK-293 MUTYH KO cells;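 note: cells sorted at 72 h after reporter transfection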
Cut-off -0.3 on 8OG:A repair function score, inclusive. At or above means criterion met; below means criterion not met.

>>> category_label("T112H")
"criterion not met"
>>> category_label("A137M")
"criterion not met"
>>> category_label("T66P")
"criterion met"
>>> category_label("S294N")
"criterion met"
>>> category_label("W321Y")
"criterion met"
>>> category_label("A177L")
"criterion met"
>>> category_label("E452Q")
"criterion not met"
>>> category_label("R87E")
"criterion met"
>>> category_label("T439C")
"criterion met"
>>> category_label("S384G")
"criterion met"
>>> category_label("Q472K")
"criterion met"
>>> category_label("T324P")
"criterion met"
>>> category_label("V468L")
"criterion met"
>>> category_label("L408F")
"criterion not met"
>>> category_label("D82Y")
"criterion met"
>>> category_label("C272F")
"criterion not met"
>>> category_label("V415I")
"criterion met"
>>> category_label("D249A")
"criterion not met"
>>> category_label("E452N")
"criterion not met"
>>> category_label("C311R")
"criterion not met"
>>> category_label("S105I")
"criterion not met"
>>> category_label("P383C")
"criterion met"
>>> category_label("Q113N")
"criterion met"
>>> category_label("E451C")
"criterion met"
>>> category_label("T511K")
"criterion met"
>>> category_label("I198A")
"criterion not met"
>>> category_label("V142E")
"criterion not met"
>>> category_label("G205D")
"criterion not met"
>>> category_label("F504Q")
"criterion met"
>>> category_label("Q282E")
"criterion met"
>>> category_label("T380M")
"criterion met"
>>> category_label("E168K")
"criterion met"
>>> category_label("V117R")
"criterion not met"
>>> category_label("L183N")
"criterion met"
>>> category_label("H454I")
"criterion met"
>>> category_label("T324F")
"criterion met"
>>> category_label("A192D")
"criterion not met"
>>> category_label("R69D")
"criterion not met"
>>> category_label("R219G")
"criterion not met"
>>> category_label("G70R")
"criterion met"
>>> category_label("R409A")
"criterion met"
>>> category_label("L49A")
"criterion met"
>>> category_label("K422S")
"criterion met"
>>> category_label("S486T")
"criterion met"
>>> category_label("W103E")
"criterion not met"
>>> category_label("D322I")
"criterion met"
>>> category_label("L423E")
"criterion met"
>>> category_label("V165R")
"criterion not met"
>>> category_label("E385C")
"criterion met"
>>> category_label("L315C")
"criterion met"
>>> category_label("S480K")
"criterion met"
>>> category_label("M125Y")
"criterion not met"
>>> category_label("T346H")
"criterion not met"
>>> category_label("R336E")
"criterion met"
>>> category_label("Q473N")
"criterion met"
>>> category_label("L58A")
"criterion met"
>>> category_label("R189S")
"criterion met"
>>> category_label("L403F")
"criterion met"
>>> category_label("S419Q")
"criterion not met"
>>> category_label("Q271R")
"criterion met"
>>> category_label("L313Q")
"criterion not met"
>>> category_label("Q271K")
"criterion met"
>>> category_label("L229V")
"criterion met"
>>> category_label("R175D")
"criterion met"
>>> category_label("L72I")
"criterion met"
>>> category_label("F68W")
"criterion not met"
>>> category_label("D133S")
"criterion met"
>>> category_label("A400D")
"criterion not met"
>>> category_label("N366T")
"criterion met"
>>> category_label("V165D")
"criterion not met"
>>> category_label("F505M")
"criterion met"
>>> category_label("Q182V")
"criterion met"
>>> category_label("A354S")
"criterion met"
>>> category_label("A259P")
"criterion not met"
>>> category_label("L349W")
"criterion not met"
>>> category_label("Q252P")
"criterion not met"
>>> category_label("S105P")
"criterion not met"
>>> category_label("N517I")
"criterion met"
>>> category_label("P306E")
"criterion met"
>>> category_label("A253M")
"criterion not met"
>>> category_label("P437A")
"criterion met"
>>> category_label("A199G")
"criterion met"
>>> category_label("G475A")
"criterion met"
>>> category_label("R283H")
"criterion met"
>>> category_label("L95S")
"criterion met"
>>> category_label("G193Q")
"criterion met"
>>> category_label("R154M")
"criterion not met"
>>> category_label("Y425I")
"criterion met"
>>> category_label("D512I")
"criterion met"
>>> category_label("C489A")
"criterion met"
>>> category_label("A280D")
"criterion not met"
